Quick reference: pKd of the listed items.
- target: ATF2 (Homo sapiens)
- Construct: made in house
- Sequence (P15336 352-415 limits assumed): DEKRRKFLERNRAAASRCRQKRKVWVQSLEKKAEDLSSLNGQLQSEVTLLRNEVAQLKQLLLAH
- assaySummary: Direct-binding FRET assay
- conditions: 4°C; C-terminal rhodamine design; mean or single; read-out: Kd
pKd: −log10 of the molar value. Where no end group is shown, it is not given here.

- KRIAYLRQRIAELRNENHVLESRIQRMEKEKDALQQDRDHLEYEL [ATF5-d1]: < 5.30

Give the reported value of pKd for this record: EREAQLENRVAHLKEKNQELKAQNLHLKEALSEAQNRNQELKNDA [XBP1-d1] < 6.00

###

- target: NFE2L2 (Homo sapiens)
- Construct: made in house
- Sequence (Q16236 497-560 limits assumed): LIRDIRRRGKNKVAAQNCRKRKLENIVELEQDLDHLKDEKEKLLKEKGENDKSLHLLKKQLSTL
- assaySummary: Direct-binding FRET assay
- conditions: 37°C; N-terminal rhodamine design; mean or single; read-out: Kd
- Procedure: The direct binding assay was performed manually in 384-well plates and is similar to a previously described assay. Wells were filled with 20 μL of 1 mM TCEP-HCl. […] Briefly, the Kd of the designed peptide homodimer was experimentally determined and used with previously determined target homodimer Kd values to determine the heterodimer Kd. […] A minimum 15% change in the donor fluorescence upon titrating the acceptor peptide from 0 to 1000 nM was required for a fit to be attempted. […]
Where no end group is shown, it is not given here.
quantityKind: Kd

Consider the reported Kd for these sequences:
* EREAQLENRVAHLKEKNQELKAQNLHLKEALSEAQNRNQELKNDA [XBP1-d1] | > 1000 nM
* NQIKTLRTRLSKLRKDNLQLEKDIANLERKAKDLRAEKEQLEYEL [ATF4-d1] | > 1000 nM

Pending sequence:
Give the reported value of Kd for this record: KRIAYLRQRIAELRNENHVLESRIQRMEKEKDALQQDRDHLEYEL [ATF5-d1] > 1000 nM

###

- target: BACH2 (Homo sapiens, UniProt Q9BYV9)
- Sequence (Q9BYV9 646-709 limits assumed): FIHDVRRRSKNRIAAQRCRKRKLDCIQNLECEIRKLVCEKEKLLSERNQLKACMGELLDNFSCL
- assaySummary: Direct-binding FRET assay
- Design: made in house
- conditions: 37°C; C-terminal fluorescein design as donor, TAMRA target titrated; read-out: Kd
Where no end group is shown, it is not given here.
quantityKind: Kd

• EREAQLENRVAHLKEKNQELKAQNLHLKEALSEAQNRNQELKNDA [XBP1-d1] = > 1000 nM

Pending sequence:
GET Kd where system = BACH2 (Homo sapiens, UniProt Q9BYV9) and item = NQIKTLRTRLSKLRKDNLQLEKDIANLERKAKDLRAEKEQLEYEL [ATF4-d1] > 1000 nM

###

- target: MAFF (Homo sapiens)
- Construct: made in house
- Sequence (Q9ULX9 51-114 limits assumed): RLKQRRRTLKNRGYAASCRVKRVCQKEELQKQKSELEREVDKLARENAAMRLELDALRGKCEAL
- assaySummary: Direct-binding FRET assay
- conditions: 23°C; N-terminal rhodamine design; mean or single
pKd: −log10 of the molar value. Where no end group is shown, it is not given here.
quantityKind: pKd

GET pKd where system = MAFF (Homo sapiens) and item = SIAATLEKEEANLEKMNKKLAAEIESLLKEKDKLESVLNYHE [JUN-d1] < 6.00

###

- target: BATF (Homo sapiens)
- Construct: made in house
- Sequence (Q16520 26-89 limits assumed): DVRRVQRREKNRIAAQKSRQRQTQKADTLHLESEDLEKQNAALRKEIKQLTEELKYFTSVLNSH
- assaySummary: Direct-binding FRET assay
- conditions: Kd, 37°C; C-terminal rhodamine design; mean or single
Where no end group is shown, it is not given here.
quantityKind: Kd

GET Kd where system = BATF (Homo sapiens) and item = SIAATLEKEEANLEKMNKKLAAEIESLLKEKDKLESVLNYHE [JUN-d1] > 1000 nM

###

- target: FOS (Homo sapiens, UniProt P01100)
- Sequence (P01100 137-200 limits assumed): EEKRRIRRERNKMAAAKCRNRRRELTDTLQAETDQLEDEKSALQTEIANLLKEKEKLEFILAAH
- assaySummary: Direct-binding FRET assay
- Parameters: made in house
- conditions: 37°C; C-terminal fluorescein design as donor, TAMRA target titrated; read-out: Kd
Where no end group is shown, it is not given here.
quantityKind: Kd

- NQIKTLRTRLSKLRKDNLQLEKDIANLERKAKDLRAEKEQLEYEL [ATF4-d1]: > 1 µM

Pending sequence:
GET Kd where system = FOS (Homo sapiens, UniProt P01100) and item = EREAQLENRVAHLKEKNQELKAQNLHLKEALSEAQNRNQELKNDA [XBP1-d1] > 1 µM

###

- target: ATF5 (Homo sapiens)
- Construct: made in house
- Sequence (Q9Y2D1 208-271 limits assumed): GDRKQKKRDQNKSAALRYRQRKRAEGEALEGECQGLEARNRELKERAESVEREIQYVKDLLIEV
- assaySummary: Direct-binding FRET assay
- conditions: 4°C; C-terminal rhodamine design; mean or single; read-out: Kd
pKd: −log10 of the molar value. Where no end group is shown, it is not given here.
Quick reference: pKd of the listed items.

Consider the reported pKd for these sequences:
- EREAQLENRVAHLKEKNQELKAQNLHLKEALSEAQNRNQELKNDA [XBP1-d1]: < 6.00
- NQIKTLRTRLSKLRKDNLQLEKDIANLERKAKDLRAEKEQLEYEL [ATF4-d1]: < 5.30

Pending sequence:
Give the reported value of pKd for this record: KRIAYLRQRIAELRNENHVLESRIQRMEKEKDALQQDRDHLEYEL [ATF5-d1] 8.96

###

- target: NFIL3 (Homo sapiens)
- Construct: made in house
- Sequence (Q16649 73-136 limits assumed): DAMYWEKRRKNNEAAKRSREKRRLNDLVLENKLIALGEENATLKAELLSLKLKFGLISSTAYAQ
- assaySummary: Direct-binding FRET assay
- conditions: 4°C; C-terminal fluorescein design as donor, TAMRA target titrated
pKd: −log10 of the molar value. Where no end group is shown, it is not given here.
quantityKind: pKd

Give the reported value of pKd for this record: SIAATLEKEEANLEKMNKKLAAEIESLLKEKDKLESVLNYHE [JUN-d1] < 6.00

###

- target: BATF3 (Homo sapiens)
- Construct: made in house
- Sequence (Q9NR55 35-98 limits assumed): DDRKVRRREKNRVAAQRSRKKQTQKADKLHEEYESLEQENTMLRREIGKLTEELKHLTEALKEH
- assaySummary: Direct-binding FRET assay
- conditions: 4°C; C-terminal rhodamine design; mean or single; read-out: Kd
- Description: The direct binding assay was performed manually in 384-well plates and is similar to a previously described assay. Wells were filled with 20 μL of 1 mM TCEP-HCl. […] Briefly, the Kd of the designed peptide homodimer was experimentally determined and used with previously determined target homodimer Kd values to determine the heterodimer Kd. […] A minimum 15% change in the donor fluorescence upon titrating the acceptor peptide from 0 to 1000 nM was required for a fit to be attempted. […]
pKd: −log10 of the molar value. Where no end group is shown, it is not given here.
Quick reference: pKd of the listed items.

Consider the reported pKd for these sequences:
- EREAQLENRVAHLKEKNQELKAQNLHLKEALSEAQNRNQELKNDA [XBP1-d1]: < 5.30
- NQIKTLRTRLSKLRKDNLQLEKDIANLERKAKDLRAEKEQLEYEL [ATF4-d1]: < 6.00

Pending sequence:
Give the reported value of pKd for this record: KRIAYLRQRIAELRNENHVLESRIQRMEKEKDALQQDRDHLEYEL [ATF5-d1] 6.72

###

- target: BATF2 (Homo sapiens, UniProt Q8N1L9)
- Construct: made in house
- Sequence (Q8N1L9 17-80 limits assumed): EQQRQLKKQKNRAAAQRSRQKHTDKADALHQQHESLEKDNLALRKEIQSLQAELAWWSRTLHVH
- assaySummary: Direct-binding FRET assay
- conditions: Kd, 4°C; N-terminal rhodamine design; mean or single
pKd: −log10 of the molar value. Where no end group is shown, it is not given here.
quantityKind: pKd

GET pKd where system = BATF2 (Homo sapiens, UniProt Q8N1L9) and item = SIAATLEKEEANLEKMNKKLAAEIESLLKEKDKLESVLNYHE [JUN-d1] < 6.00

###

- target: CREB3L3 (Homo sapiens)
- Construct: made in house
- Sequence (Q68CJ9 243-306 limits assumed): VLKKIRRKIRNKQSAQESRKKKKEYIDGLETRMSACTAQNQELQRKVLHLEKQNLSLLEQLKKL
- assaySummary: Direct-binding FRET assay
- conditions: 23°C; C-terminal fluorescein design as donor, TAMRA target titrated
Where no end group is shown, it is not given here.
quantityKind: Kd

Give the reported value of Kd for this record: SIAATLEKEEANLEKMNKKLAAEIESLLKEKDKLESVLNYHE [JUN-d1] > 1000 nM

###

Quick reference: Kd of the listed items.
- target: NFIL3 (Homo sapiens)
- Construct: made in house
- assaySummary: Direct-binding FRET assay
- conditions: 23°C; C-terminal fluorescein design as donor, TAMRA target titrated; read-out: Kd
Where no end group is shown, it is not given here.

• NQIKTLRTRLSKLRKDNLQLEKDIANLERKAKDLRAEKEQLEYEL [ATF4-d1] = > 1 µM

Pending sequence:
Give the reported value of Kd for this record: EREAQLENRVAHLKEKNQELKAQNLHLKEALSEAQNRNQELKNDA [XBP1-d1] > 1 µM

###

- target: XBP1 (Homo sapiens)
- Construct: made in house
- Sequence (P17861 70-133 limits assumed): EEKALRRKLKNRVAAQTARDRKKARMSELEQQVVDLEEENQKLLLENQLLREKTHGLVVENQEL
- assaySummary: Direct-binding FRET assay
- conditions: 4°C; N-terminal rhodamine design; mean or single
pKd: −log10 of the molar value. Where no end group is shown, it is not given here.
quantityKind: pKd

Give the reported value of pKd for this record: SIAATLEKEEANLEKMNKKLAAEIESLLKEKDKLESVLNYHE [JUN-d1] < 6.00
